Numbers sourced from ChEMBL document CHEMBL1158564.

Consider the following molecules; for each one, report its inhibition.
assayedSystem: Voltage-dependent T-type calcium channel subunit alpha-1G (Homo sapiens)
Sequence (O43497 whole entry): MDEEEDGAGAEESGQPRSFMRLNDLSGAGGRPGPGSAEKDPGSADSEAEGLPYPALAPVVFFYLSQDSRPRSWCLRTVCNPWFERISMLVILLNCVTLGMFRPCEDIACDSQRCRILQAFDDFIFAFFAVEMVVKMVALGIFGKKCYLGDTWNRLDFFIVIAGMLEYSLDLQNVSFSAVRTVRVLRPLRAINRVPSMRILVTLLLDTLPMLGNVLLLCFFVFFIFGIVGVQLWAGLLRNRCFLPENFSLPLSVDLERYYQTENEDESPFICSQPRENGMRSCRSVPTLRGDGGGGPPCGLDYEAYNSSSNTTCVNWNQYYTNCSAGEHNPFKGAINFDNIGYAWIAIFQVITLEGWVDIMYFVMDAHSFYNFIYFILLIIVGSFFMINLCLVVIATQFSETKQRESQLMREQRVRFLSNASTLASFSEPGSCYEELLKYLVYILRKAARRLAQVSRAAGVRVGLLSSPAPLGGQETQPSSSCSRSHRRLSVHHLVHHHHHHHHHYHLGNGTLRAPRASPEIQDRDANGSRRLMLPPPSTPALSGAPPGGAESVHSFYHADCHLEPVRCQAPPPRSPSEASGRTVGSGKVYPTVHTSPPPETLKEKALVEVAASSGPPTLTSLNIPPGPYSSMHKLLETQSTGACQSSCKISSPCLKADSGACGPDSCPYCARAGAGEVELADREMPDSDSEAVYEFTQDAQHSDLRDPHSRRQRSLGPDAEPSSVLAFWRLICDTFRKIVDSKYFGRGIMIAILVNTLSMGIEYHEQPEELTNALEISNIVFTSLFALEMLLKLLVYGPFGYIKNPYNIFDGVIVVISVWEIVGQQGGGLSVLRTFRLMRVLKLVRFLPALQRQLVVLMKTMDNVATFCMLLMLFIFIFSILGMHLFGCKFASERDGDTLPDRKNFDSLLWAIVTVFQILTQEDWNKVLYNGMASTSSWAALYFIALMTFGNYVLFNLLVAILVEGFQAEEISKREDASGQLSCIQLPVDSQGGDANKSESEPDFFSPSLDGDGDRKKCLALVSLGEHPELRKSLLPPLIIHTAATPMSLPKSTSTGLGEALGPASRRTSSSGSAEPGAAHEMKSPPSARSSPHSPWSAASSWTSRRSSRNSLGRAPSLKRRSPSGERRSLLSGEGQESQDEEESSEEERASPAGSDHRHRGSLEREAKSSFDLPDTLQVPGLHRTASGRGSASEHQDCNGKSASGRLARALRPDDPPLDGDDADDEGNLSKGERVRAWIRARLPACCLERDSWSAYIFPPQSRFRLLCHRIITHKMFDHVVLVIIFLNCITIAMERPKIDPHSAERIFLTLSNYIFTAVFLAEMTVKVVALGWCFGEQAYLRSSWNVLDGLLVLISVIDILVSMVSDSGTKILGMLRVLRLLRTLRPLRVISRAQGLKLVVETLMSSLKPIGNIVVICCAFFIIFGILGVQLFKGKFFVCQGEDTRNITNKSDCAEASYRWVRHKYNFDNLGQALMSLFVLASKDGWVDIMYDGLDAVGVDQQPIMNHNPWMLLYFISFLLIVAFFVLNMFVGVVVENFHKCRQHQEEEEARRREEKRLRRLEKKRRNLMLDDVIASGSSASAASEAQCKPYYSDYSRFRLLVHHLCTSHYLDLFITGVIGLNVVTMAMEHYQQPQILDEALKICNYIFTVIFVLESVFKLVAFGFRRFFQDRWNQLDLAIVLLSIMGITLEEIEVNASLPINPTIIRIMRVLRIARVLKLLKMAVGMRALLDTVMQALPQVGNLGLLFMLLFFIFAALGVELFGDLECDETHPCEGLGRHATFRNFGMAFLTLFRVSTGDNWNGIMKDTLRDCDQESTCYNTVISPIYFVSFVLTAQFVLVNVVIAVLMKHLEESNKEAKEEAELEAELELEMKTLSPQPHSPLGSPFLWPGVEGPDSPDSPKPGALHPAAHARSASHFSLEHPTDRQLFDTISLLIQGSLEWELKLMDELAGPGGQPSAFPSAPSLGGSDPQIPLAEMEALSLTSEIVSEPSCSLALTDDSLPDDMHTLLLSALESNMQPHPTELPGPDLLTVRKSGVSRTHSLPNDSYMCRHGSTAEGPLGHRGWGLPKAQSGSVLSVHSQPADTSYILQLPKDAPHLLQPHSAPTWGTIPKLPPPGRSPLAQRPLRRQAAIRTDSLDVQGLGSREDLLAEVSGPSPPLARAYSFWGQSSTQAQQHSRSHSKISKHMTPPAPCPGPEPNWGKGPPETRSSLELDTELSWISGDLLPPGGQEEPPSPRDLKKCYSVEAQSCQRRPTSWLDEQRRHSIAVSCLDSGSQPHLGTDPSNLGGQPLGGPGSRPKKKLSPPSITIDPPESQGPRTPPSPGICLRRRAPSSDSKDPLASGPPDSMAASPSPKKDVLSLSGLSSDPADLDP
testName: Inhibition of T-type calcium channel alpha1G expressed in human HEK293 cells assessed as inhibition of KCl-induced increase in calcium level at 10 uM after 60 mins by FDSS6000 assay
One number for each entry, in %.

Solved cases (4 shown):
INSERT INTO measurements (compoundstructure, metric, readoutunits, datavalue) VALUES
  ('O=C(CNc1ccccc1F)N1CCCN(Cc2nc3ccccc3[nH]2)CC1', 'inhibition', '%', 22.3),
  ('Cc1cccc(NC(=O)CN2CCCN(Cc3nc4ccccc4[nH]3)CC2)c1', 'inhibition', '%', 54.8),
  ('O=C(CN1CCCN(Cc2nc3ccccc3[nH]2)CC1)Nc1cccc(F)c1', 'inhibition', '%', 46.4),
  ('COc1ccccc1NCC(=O)N1CCCN(Cc2nc3ccccc3[nH]2)CC1', 'inhibition', '%', 8.29);

// query Returns the measured inhibition for the input molecule. Input: O=C(CNc1ccc(Cl)cc1)N1CCCN(Cc2nc3ccccc3[nH]2)CC1
// result 36.9

====

assayedSystem: Voltage-dependent T-type calcium channel subunit alpha-1G (Homo sapiens)
testName: Inhibition of T-type calcium channel alpha1G expressed in human HEK293 cells assessed as inhibition of KCl-induced increase in calcium level at 10 uM after 60 mins by FDSS6000 assay
metric: inhibition
Answer format reminder: number followed by unit.

For orientation, consider the following solved cases.
INSERT INTO assay_data (compoundstructure, datavalue) VALUES
  ('COc1cccc(NC(=O)CN2CCCN(Cc3nc4ccccc4[nH]3)CC2)c1', '46.1%'),
  ('Cc1cccc(C)c1NCC(=O)N1CCCN(Cc2nc3ccccc3[nH]2)CC1', '29.5%'),
  ('Cc1ccc(NC(=O)CN2CCCN(Cc3nc4ccccc4[nH]3)CC2)cc1', '44.8%'),
  ('O=C(CN1CCCN(Cc2nc3ccccc3[nH]2)CC1)Nc1cccc(Cl)c1', '41.7%');

// query Request - read-out inhibition | tested on Voltage-dependent T-type calcium channel subunit alpha-1G (Homo sapiens) | molecule O=C(CNc1ccccc1C(F)(F)F)N1CCCN(Cc2nc3ccccc3[nH]2)CC1
// result 66%

====

testName: Volume of distribution at steady state in iv dosed rat
Type: ADME, organism-based
testContext: in vivo, read-out: Vdss
metric: Vd
Field: value (include unit after the number)

// query // lookup Vd for O=C(CN1CCCN(Cc2nc3ccccc3[nH]2)CC1)Nc1ccc(C(F)(F)F)cc1
// result 2.33 L/kg

====

assayedSystem: Voltage-dependent T-type calcium channel subunit alpha-1G (Homo sapiens)
testName: Inhibition of T-type calcium channel alpha1G expressed in human HEK293 cells assessed as inhibition of KCl-induced increase in calcium level at 10 uM after 60 mins by FDSS6000 assay
Kindly supply the reported inhibition values for the records listed here.
Answers are plain numbers, in %.

Hello, I would appreciate it if you could give inhibition for each entry below.
1. O=C(CNc1ccc(F)cc1)N1CCCN(Cc2nc3ccccc3[nH]2)CC1
2. O=C(CNc1ccccc1Cl)N1CCCN(Cc2nc3ccccc3[nH]2)CC1
3. O=C(CNc1cccc(F)c1)N1CCCN(Cc2nc3ccccc3[nH]2)CC1
4. O=C(CN1CCCN(Cc2nc3ccccc3[nH]2)CC1)Nc1ccc(F)cc1
5. Cc1cccc(C)c1NC(=O)CN1CCCN(Cc2nc3ccccc3[nH]2)CC1

// result
12.8
32.2
7.52
46.6
39.8

====

Please respond with reported inhibition for every item in the list.
assayedSystem: Voltage-dependent T-type calcium channel subunit alpha-1G (Homo sapiens)
testName: Inhibition of T-type calcium channel alpha1G expressed in human HEK293 cells assessed as inhibition of KCl-induced increase in calcium level at 10 uM after 60 mins by FDSS6000 assay
Give bare numbers, in %.

INSERT INTO measurements (compoundstructure, datavalue) VALUES
  ('O=C(CN1CCCN(Cc2nc3ccccc3[nH]2)CC1)Nc1ccc(Cl)cc1', 51.3),
  ('Cc1ccc(NC(=O)CN2CCCN(Cc3nc4ccccc4[nH]3)CC2)cc1C', 56.2),
  ('COc1ccc(NC(=O)CN2CCCN(Cc3nc4ccccc4[nH]3)CC2)cc1', 32.4);

Dear reader, for each entry below, please note its inhibition.
1. O=C(CN1CCCN(Cc2nc3ccccc3[nH]2)CC1)Nc1ccccc1C(F)(F)F
2. CCc1cccc(CC)c1NC(=O)CN1CCCN(Cc2nc3ccccc3[nH]2)CC1
3. O=C(CNc1cccc(C(F)(F)F)c1)N1CCCN(Cc2nc3ccccc3[nH]2)CC1

// result
1. 41.7
2. 57.4
3. 27.3

Batch request: inhibition per item, same order as input.
1. Cc1ccc(NCC(=O)N2CCCN(Cc3nc4ccccc4[nH]3)CC2)cc1
2. Cc1ccc(NCC(=O)N2CCCN(Cc3nc4ccccc4[nH]3)CC2)cc1C

// result
16.4
16.5

Parameter requested: inhibition. Apply to each item below.
1. Cc1cccc(NCC(=O)N2CCCN(Cc3nc4ccccc4[nH]3)CC2)c1
2. Cc1ccc(NCC(=O)N2CCCN(Cc3nc4ccccc4[nH]3)CC2)c(C)c1

// result
[8.48, 21.1]

Dear reader, for each entry below, please note its inhibition.
1. O=C(CN1CCCN(Cc2nc3ccccc3[nH]2)CC1)Nc1ccccc1F
2. Cc1ccccc1NC(=O)CN1CCCN(Cc2nc3ccccc3[nH]2)CC1
3. O=C(CNc1cccc(Cl)c1)N1CCCN(Cc2nc3ccccc3[nH]2)CC1

// result
1: 32.4; 2: 51.8; 3: 40.9
